compounds and their reported Fibroblasts (BJ) LDH
Test system: Fibroblasts (BJ)
Assay: Safety, LDH test in fibroblasts
Type: cell-based
Settings: 100 µM; 48 hours; positive control Triton X-100

**Query** Recorded Fibroblasts (BJ) LDH of `O=C(/C=C/c1ccc(Cl)cc1)NCCCCCO` , please.
**Result** 5.25 percentage of positive control

**Query** Follow-up entry: `O=C(/C=C/c1ccc(Cl)cc1)NCCO`
**Result** 2.75 percentage of positive control

**Query** How about `O=C(/C=C/c1ccc(Cl)cc1)NCCCO` ?
**Result** 4.74 percentage of positive control

**Query** And the next one, `Cc1ccc(/C=C/C(=O)NCCCCCO)cc1` ?
**Result** 8.81 percentage of positive control

**Query** # repeat for `O=C(/C=C/c1ccccc1)NCCCCCO`
**Result** 5.00 percentage of positive control

====

Each item that follows carries a reported % Viability [mean].
Test system: Chinese hamster ovary cell line (CHO-K1)
Assay: Cytotoxicity in CHO-K1 cells (MTT) before the micronucleus test
Type: cell-based
Details: 150 µM, 24 hours
Include the unit after the number when you answer.

{"compound": "Cc1ccc(/C=C/C(=O)NCCCCCO)cc1 [H-415/21]", "% Viability [mean]": "102.8%"}
{"compound": "O=C(/C=C/c1ccc(Cl)cc1)NCCCCCO [Compound A-111]", "% Viability [mean]": "95.6%"}
{"compound": "O=C(/C=C/c1ccccc1)NCCCCCO [Compound A-133]", "% Viability [mean]": "97.2%"}

**Query** Given the compound O=C(/C=C/c1ccccc1)NCCCCCCO [H-425/21] , what is its reported % Viability [mean]?
**Result** 83.8%

**Query** And the next one, CCC(O)CNC(=O)/C=C/c1ccc(Cl)cc1 (stereo not drawn) [Compound A-67] ?
**Result** 90.3%

**Query** Please answer likewise for CC(CO)NC(=O)/C=C/c1ccc(Cl)cc1 (stereo not drawn) [Compound A-102]
**Result** 69.9%

====

Cytotoxicity study in B16F10 cells % viability overview
System: B16-F10 murine melanoma cell line
Test: Cytotoxicity in B16-F10 cells (MTT)
Assay type: cell-based
Conditions: 150 µM, 48 h
Lab book: enter the figure in %, no units written.

These recorded examples may help you get a feel for the data.
{"compound": "O=C(/C=C/c1ccc(Cl)cc1)NCCCO [H-330/21]", "uom": "%", "endpointValue": 78.6}
{"compound": "CCC(O)CNC(=O)/C=C/c1ccc(C)cc1 (centres unmarked) [Compound A-63]", "uom": "%", "endpointValue": 90.2}
{"compound": "CCC(CO)NC(=O)/C=C/c1ccc(C)cc1 (centres unmarked) [H-409/21]", "uom": "%", "endpointValue": 83.2}
{"compound": "CC(C)C(CO)NC(=O)/C=C/c1ccc(Cl)cc1 (centres unmarked) [Compound A-106]", "uom": "%", "endpointValue": 85.9}
{"compound": "Cc1ccc(/C=C/C(=O)NCCCO)cc1 [H-410/21]", "uom": "%", "endpointValue": 88.8}

**Query** Return reported Cytotoxicity study in B16F10 cells % viability; argument: O=C(/C=C/c1ccc(Cl)cc1)NCCO [H-427/21]
**Result** 73.7

**Query** Then what about the compound O=C(/C=C/c1ccc(Cl)cc1Cl)N1CCC(O)CC1 [H-310/20] ?
**Result** 89.5

**Query** // query: Cc1ccc(/C=C/C(=O)NC(C)CO)cc1 (centres unmarked) [Compound A-69]
**Result** 96.6

====

System: Primary melanocytes
Experiment: Safety, LDH test in primary melanocytes
Type: cell-based
Settings: 150 µM; 48 hours; positive control Triton X-100
Primary melanocytes LDH overview

Please review the entries below; each comes with its answer.
{"smilesInput": "O=C(/C=C/c1ccccc1)NCCCCCO", "Primary melanocytes LDH": "7.59 percentage of positive control"}
{"smilesInput": "Cc1ccc(/C=C/C(=O)NCCCCCO)cc1", "Primary melanocytes LDH": "6.01 percentage of positive control"}
{"smilesInput": "O=C(/C=C/c1ccc(Cl)cc1)NCCCO", "Primary melanocytes LDH": "13.09 percentage of positive control"}

**Query** Entry `O=C(/C=C/c1ccc(Cl)cc1)NCCCCCO` : reported Primary melanocytes LDH = ?
**Result** 4.95 percentage of positive control

====

Test system: tyrosinase from mushroom
Experiment: Inhibition of commercial mushroom tyrosinase (L-DOPA or L-tyrosine substrate)
Type: biochemical
Details: L-tyrosine
This section presents molecules with their documented Tyrosinase inhibition with L-tyrosine [%] values.

**Query** What does the record list as Tyrosinase inhibition with L-tyrosine [%] for `O=C(/C=C/c1ccc(Cl)cc1)NCCCCCO` ?
**Result** 88.98±0.98% (500 µM)

**Query** Same read-out for `Cc1ccc(/C=C/C(=O)NCCCCCO)cc1` ?
**Result** 25.04±5.67% (500 µM)

====

// reported Cytotoxicity study in B16F10 cells % viability for each item listed
Test system: B16-F10 murine melanoma cell line
Test: Cytotoxicity in B16-F10 cells (MTT)
Type: cell-based
Settings: 200 µM, 48 h
State the value, then name its unit.

{"molecule": "Cc1ccc(/C=C/C(=O)NCCCCCO)cc1", "targetEntity": "B16-F10 murine melanoma cell line", "endpointValue": "90.3%"}

**Query** Fill in the recorded Cytotoxicity study in B16F10 cells % viability for this molecule, with B16-F10 murine melanoma cell line as test system: CC(C)C(CO)NC(=O)/C=C/c1ccc(Cl)cc1 (centres unmarked)
**Result** 88.1%

**Query** Further, for `O=C(/C=C/c1ccc(Cl)cc1Cl)NCCCCO` ?
**Result** 40.6%

**Query** Do the same for `O=C(/C=C/c1ccc(Cl)cc1)NCCCCCCO` please
**Result** 28.2%

**Query** How about CCC(O)CNC(=O)/C=C/c1ccc(Cl)cc1 (centres unmarked) ?
**Result** 87.8%

====

Test system: tyrosinase from mushroom
Assay: Inhibition of commercial mushroom tyrosinase (L-DOPA or L-tyrosine substrate)
Assay type: biochemical
Conditions: L-DOPA
Description: The following substrates were used for the enzymatic reaction: L-tyrosine and L-3,4-dihyroxyphenylalanine (L-DOPA). Both substrates were used in independent experiments. […] After a 25-minute incubation, the absorbance was measured at 475 nm using a microplate reader. The percentage of inhibition of tyrosinase activity was calculated using the formula: [(AC -AT)/AC] × 100, where AC - is the absorbance of the negative control, AT - is the absorbance of the sample containing the tested compound.
experimentalEndpoint: Tyrosinase inhibition with L-DOPA [%]

Worked examples follow.
{"molecule": "O=C(/C=C/c1ccccc1)NCCCCO [Compound A-43]", "endpointValue": "34.55±4.18% (500 µM)"}
{"molecule": "O=C(/C=C/c1ccc(Cl)cc1)NCCCCO [H-331/21]", "endpointValue": "64.31±0.21% (500 µM)"}
{"molecule": "CC(C)C(CO)NC(=O)/C=C/c1ccc(Cl)cc1 (stereo not shown) [Compound A-106]", "endpointValue": "41.17±0.81% (500 µM)"}
{"molecule": "O=C(/C=C/c1ccc(Cl)cc1Cl)N1CCC(O)CC1 [H-310/20]", "endpointValue": "7.23±0.81% (500 µM)"}
{"molecule": "O=C(/C=C/c1ccc(Cl)cc1)NCCO [H-427/21]", "endpointValue": "55.77±0.77% (500 µM)"}
{"molecule": "CCC(O)CNC(=O)/C=C/c1ccc(C)cc1 (stereo not shown) [Compound A-63]", "endpointValue": "21.19±1.26% (500 µM)"}
{"molecule": "Cc1ccc(/C=C/C(=O)NCCCO)cc1 [H-410/21]", "endpointValue": "16.99±5.66% (500 µM)"}
{"molecule": "CCC(CO)NC(=O)/C=C/c1ccc(Cl)cc1 (stereo not shown) [Compound A-01]", "endpointValue": "43.99±2.60% (500 µM)"}

**Query** Returns the measured Tyrosinase inhibition with L-DOPA [%] for the input molecule. Input: O=C(/C=C/c1ccc(Cl)cc1Cl)NCCCCO [H-298/20]
**Result** 11.16±2.78 (500 µM) %

**Query** Now this one: CC(CO)NC(=O)/C=C/c1ccc(Cl)cc1 (stereo not shown) [Compound A-102]
**Result** 53.02±1.99% (500 µM)

**Query** Also need O=C(/C=C/c1ccc(Cl)cc1)NCCCO [H-330/21] , thanks.
**Result** 55.32±1.39% (500 µM)

**Query** Same question, O=C(/C=C/c1ccccc1)NCCCCCCO [H-425/21] this time
**Result** 34.63±2.46% (500 µM)

**Query** What do we get for O=C(/C=C/c1ccccc1)NCCO [H-429/21] ?
**Result** 30.54±1.20% (500 µM)
